- tgt: human PAH with the R408W mutation (Homo sapiens, UniProt P00439, R408W)
- Construct: expressed in transfected cells
- Sequence (P00439 1-452 R408W): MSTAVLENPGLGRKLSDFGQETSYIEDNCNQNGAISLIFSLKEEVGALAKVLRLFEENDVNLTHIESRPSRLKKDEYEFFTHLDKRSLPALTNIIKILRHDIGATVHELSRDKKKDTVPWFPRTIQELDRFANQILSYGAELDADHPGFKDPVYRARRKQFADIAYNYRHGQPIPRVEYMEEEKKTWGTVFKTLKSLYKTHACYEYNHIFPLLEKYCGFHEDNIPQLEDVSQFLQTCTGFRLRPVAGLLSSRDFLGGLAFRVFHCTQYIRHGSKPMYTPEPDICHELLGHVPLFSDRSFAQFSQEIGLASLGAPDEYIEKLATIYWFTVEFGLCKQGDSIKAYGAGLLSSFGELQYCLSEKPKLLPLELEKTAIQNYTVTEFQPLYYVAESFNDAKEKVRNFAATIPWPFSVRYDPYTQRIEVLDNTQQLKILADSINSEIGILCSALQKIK
- protocol_summary: Cell Based Phenylalanine Flux Assay
- setup_conditions: A375 cells expressing human R408W PAH; 24 hrs with compound; 13C-Tyrosine by LC-MS; average where tested multiple times; read-out: AC50
measured_parameter: AC50

Example entries and their recorded answers appear below.
[[record]]
compound = "O=C(Cc1coc(C(F)F)n1)N1CCc2[nH]cnc2C1c1nc2ccccc2s1 (centres unmarked)"
tgt = "human PAH with the R408W mutation (Homo sapiens, UniProt P00439, R408W)"
val = "1 to 5 µM"

[[record]]
compound = "O=C(c1cnn2ccc(Cl)cc12)N1CCc2[nH]cnc2[C@H]1c1nc2ccccc2[nH]1"
tgt = "human PAH with the R408W mutation (Homo sapiens, UniProt P00439, R408W)"
val = "1 to 5 µM"

[[record]]
compound = "COCc1nnc(C(=O)N2CCc3[nH]cnc3C2c2nc3ccccc3s2)o1 (centres unmarked)"
tgt = "human PAH with the R408W mutation (Homo sapiens, UniProt P00439, R408W)"
val = "1 to 5 µM"

[[record]]
compound = "Cc1nc(C(C)(C)O)oc1C(=O)N1CC(C)c2[nH]cnc2C1c1nc2c(F)cccc2s1 (centres unmarked)"
tgt = "human PAH with the R408W mutation (Homo sapiens, UniProt P00439, R408W)"
val = "1 to 5 µM"


# return AC50 for each item in the list
1. O=C(CCc1nccs1)N1CCc2[nH]cnc2[C@H]1c1nc2cccc(F)c2[nH]1 (single isomer, unassigned)
2. O=C(Cc1ncc(-c2ccccc2)s1)N1CCc2[nH]cnc2C1c1nc2ccccc2s1 (centres unmarked)
3. O=C(c1ccon1)N1CCc2[nH]cnc2C1c1nc2ccccc2s1 (centres unmarked)

1: 1 to 5 µM; 2: > 5 µM; 3: 1 to 5 µM

====

Hi there, I'd appreciate the recorded AC50 for every entry that follows.
- tgt: human PAH with the R408W mutation (Homo sapiens, UniProt P00439, R408W)
- Construct: expressed in transfected cells
- protocol_summary: Cell Based Phenylalanine Flux Assay
- setup_conditions: A375 cells expressing human R408W PAH; 24 hrs with compound; 13C-Tyrosine by LC-MS; average where tested multiple times; read-out: AC50

Example entries and their recorded answers appear below.
[[record]]
molecule = "Cc1nnc(C(=O)N2CCc3[nH]cnc3C2c2nc3c(F)cccc3s2)n1C (stereo not shown)"
val = "1 to 5 µM"

[[record]]
molecule = "O=C(CCc1cccs1)N1CCc2[nH]cnc2C1c1nc2ccccc2[nH]1 (stereo not shown)"
val = "> 5 µM"

[[record]]
molecule = "O=C(c1nccs1)N1CCc2[nH]cnc2C1c1nc2cccc(F)c2[nH]1 (stereo not shown)"
val = "> 5 µM"

[[record]]
molecule = "O=C(c1nncs1)N1CCc2[nH]cnc2[C@H]1c1nc2ccccc2[nH]1 (single isomer, unassigned)"
val = "1 to 5 µM"

[[record]]
molecule = "CC(C)(O)c1nc(C(=O)N2CCc3[nH]cnc3C2c2nc3c(F)cccc3s2)no1 (stereo not shown)"
val = "> 5 µM"


# return AC50 for each item in the list
1. O=C(c1nc2ccccc2s1)N1CCc2[nH]cnc2C1c1nc2cccc(F)c2s1 (stereo not shown)
2. O=C(Cc1nccs1)N1CCc2[nH]cnc2C1c1nc2ccccc2[nH]1 (stereo not shown)
3. O=C(Cc1nc(C(F)(F)F)cs1)N1CCc2[nH]cnc2C1c1nc2cc(F)ccc2s1 (stereo not shown)
4. O=C(c1ccno1)N1CCc2[nH]cnc2C1c1nc2ccc(F)cc2s1 (stereo not shown)
5. CC1CN(C(=O)c2cnn3cc(CN(C)C)ccc23)C(c2nc3ccccc3s2)c2nc[nH]c21 (stereo not shown)
6. Cn1ncc(C(=O)N2CCc3[nH]cnc3C2c2nc3c(F)cccc3s2)c1Cl (stereo not shown)
7. Cc1nnc(CN2CCc3[nH]cnc3C2c2nc3ccccc3[nH]2)s1 (stereo not shown)
8. O=C(Cc1cncs1)N1CCc2[nH]cnc2C1c1nc2ccccc2s1 (stereo not shown)

["1 to 5 µM", "1 to 5 µM", "1 to 5 µM", "> 5 µM", "1 to 5 µM", "1 to 5 µM", "> 5 µM", "> 5 µM"]

# return AC50 for each item in the list
1. O=C(CCc1nccs1)N1CCc2[nH]cnc2C1c1nc2ccc(Cl)cc2s1 (stereo not shown)
2. O=C(c1cnn(CC(F)(F)F)c1)N1CCc2[nH]cnc2C1c1nc2ccccc2s1 (stereo not shown)

1: 1 to 5 µM; 2: > 5 µM

# return AC50 for each item in the list
1. Cc1nnc(C(=O)N2CCc3[nH]cnc3C2c2nc3ccc(F)cc3s2)s1 (stereo not shown)
2. CC(C)(O)c1noc(C(=O)N2CCc3[nH]cnc3C2c2nc3ccccc3s2)n1 (stereo not shown)

1 to 5 µM
> 5 µM

====

Hi there, I'd appreciate the recorded AC50 for every entry that follows.
- tgt: human PAH with the R408W mutation (Homo sapiens, UniProt P00439, R408W)
- Construct: expressed in transfected cells
- protocol_summary: Cell Based Phenylalanine Flux Assay
- setup_conditions: A375 cells expressing human R408W PAH; 24 hrs compound incubation; 13C-Tyrosine by LC-MS; average where tested multiple times; read-out: AC50

[[record]]
molecule = "O=C(c1cnc(C(F)F)s1)N1CCc2[nH]cnc2[C@@H]1c1nc2ccccc2s1"
measured_parameter = "AC50"
val = "1000 to 5000 nM"


# return AC50 for each item in the list
1. Cn1nccc1C(=O)N1CCc2[nH]cnc2[C@@H]1c1nc2ccccc2s1
2. Cn1nc(Cl)cc1C(=O)N1CCc2[nH]cnc2[C@H]1c1nc2ccccc2s1

["> 5000 nM", "< 500 nM"]

# return AC50 for each item in the list
1. O=C(c1nnc(-c2ccccn2)o1)N1CCc2[nH]cnc2[C@@H]1c1nc2cccc(F)c2s1
2. O=C(c1cnc(C2CC2)o1)N1CCc2[nH]cnc2[C@@H]1c1nc2c(F)cccc2s1

["500 to 1000 nM", "1000 to 5000 nM"]

# return AC50 for each item in the list
1. CC(C)(O)c1ccc2c(C(=O)N3CCc4[nH]cnc4[C@@H]3c3nc4ccccc4s3)cnn2c1
2. O=C(c1cnn2ccccc12)N1CCc2[nH]cnc2[C@@H]1c1nc2ccccc2[nH]1
3. O=C(c1nccs1)N1CCc2[nH]cnc2[C@H]1c1nc2ccccc2s1
4. CC(C)(O)c1nc(C2CC2)c(C(=O)N2CCc3[nH]cnc3[C@@H]2c2nc3c(F)cccc3s2)o1

1: 1000 to 5000 nM; 2: > 5000 nM; 3: < 500 nM; 4: 1000 to 5000 nM

====

- tgt: human PAH with the R408W mutation (Homo sapiens, UniProt P00439, R408W)
- Construct: expressed in transfected cells
- protocol_summary: Cell Based Phenylalanine Flux Assay
- setup_conditions: A375 cells expressing human R408W PAH; 24 hrs compound incubation; 13C-Tyrosine by LC-MS; average where tested multiple times; read-out: AC50
Hi there, I'd appreciate the recorded AC50 for every entry that follows.

Example entries and their recorded answers appear below.
[[record]]
molecule = "Nc1cc(C(=O)N2CCc3[nH]cnc3[C@H]2c2nc3ccccc3s2)n(C(F)F)n1"
tgt = "human PAH with the R408W mutation (Homo sapiens, UniProt P00439, R408W)"
measured_parameter = "AC50"
val = "< 0.5 µM"

[[record]]
molecule = "CC(C)(O)Cn1cc(C(=O)N2CCc3[nH]cnc3[C@H]2c2nc3c(F)cccc3s2)c(Cl)n1"
tgt = "human PAH with the R408W mutation (Homo sapiens, UniProt P00439, R408W)"
measured_parameter = "AC50"
val = "1 to 5 µM"

[[record]]
molecule = "O=C(c1nnc(-c2ccccc2)o1)N1CCc2[nH]cnc2[C@H]1c1nc2ccccc2s1"
tgt = "human PAH with the R408W mutation (Homo sapiens, UniProt P00439, R408W)"
measured_parameter = "AC50"
val = "< 0.5 µM"

[[record]]
molecule = "O=C(c1ccno1)N1CCc2[nH]cnc2[C@@H]1c1nc2ccccc2s1"
tgt = "human PAH with the R408W mutation (Homo sapiens, UniProt P00439, R408W)"
measured_parameter = "AC50"
val = "> 5 µM"

[[record]]
molecule = "CC(C)(O)c1nc(Br)c(C(=O)N2CCc3[nH]cnc3[C@@H]2c2nc3ccccc3s2)o1"
tgt = "human PAH with the R408W mutation (Homo sapiens, UniProt P00439, R408W)"
measured_parameter = "AC50"
val = "1 to 5 µM"


# return AC50 for each item in the list
1. O=C(c1nccs1)N1CCc2nc[nH]c2[C@@H]1c1nc2c(F)cccc2s1
2. Cc1nnc(CCC(=O)N2CCc3[nH]cnc3[C@H]2c2nc3ccccc3s2)s1
3. C[C@@H]1CN(C(=O)c2nnc(-c3ccc(F)cn3)o2)[C@H](c2nc3ccccc3s2)c2nc[nH]c21
4. COc1cccc(CCCC(=O)N2CCc3[nH]cnc3[C@@H]2c2nc3ccccc3s2)c1
5. COc1cccc(/C=C/C(=O)N2CCc3[nH]cnc3[C@@H]2c2nc3ccccc3s2)c1
6. O=C(c1nnc(-c2cnn(CC(F)F)c2)o1)N1CCc2[nH]cnc2[C@@H]1c1nc2c(F)cccc2s1
7. O=C(c1ccns1)N1CCc2[nH]cnc2[C@H]1c1nc2ccccc2s1
8. CC(C)(F)c1nnc(C(=O)N2CCc3[nH]cnc3[C@@H]2c2nc3c(F)cccc3s2)o1

["1 to 5 µM", "0.5 to 1 µM", "0.5 to 1 µM", "> 5 µM", "> 5 µM", "1 to 5 µM", "0.5 to 1 µM", "1 to 5 µM"]
